System: K4 kissing-loop RNA reporter;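 also: bound reporter read as fluorescence of individual clusters on recovered sequencing chips by microscopy, with normalized cluster intensities fitted with a binding model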
Experiment: apparent KD of K4 kissing-loop reporter; higher = weaker reporter binding
Conditions: Eterna round: R107; input ligand: none
// reported apparent KD of K4 kissing-loop reporter per item

| seq | quantityUnit | apparent KD of K4 kissing-loop reporter |
| --- | --- | --- |
| GGUAGCAUGGCGGCCGCCACUGAGCAAGUGAUGUUUGCCUCCCUACCCUAGUGUCGAGAGUAUAUCAGGACCGGGCCAUGCUACC | µM | 0.149 |
| AUAUUAACUCAGUGAUGUUGAGUUGACGAAGGAGCGCUAGAGAUAGCAGGUAGGUCGCGUCAAUUUAAUGGAGACUAGCUUUACG [Arg A Ex t4] | µM | 0.365 |
| GCCAGUGAUGUUGGCGAACCAACGCAUGCAGAGGAUAUUCGUUCGGGAAGAAGGCUGCAGCGUUCUCUCCCGCAGUGAUGUUGCG [Same State FMN A GF 25] | µM | 0.169 |
| ACGUAGUUCUAGGAUACCAGCCAAGAUGCCAGGACAAAAGUCCUGGCAGCCAGUGAUGUUGGCCCUUGGCAGCCUAGAACUACGA [Omei KL Theo B Exc B v9] | µM | 0.132 |
| UUCAGUGAUGUUGAACACUGUUGUAUAAACUAGGAUAUGCUGAUAAGCAGAAGGAGUGAUGUUCCGUUCAACAUCAGAAUUAAAU [#08 K4 FMN A Exclusion] | µM | 0.488 |
| UGUUAUGGGUGAGGAUAUGCUGACGAUGCGGGUGCGAGUGAUGUUGGUGUGGCUGGUGUCGUUUGUGCAGAAGGCACGCUCGUGG [BDazzled] | µM | 0.934 |
